Kindly supply the reported PBM binding z-score values for the records listed here.
- Tested on: RARa homodimer (NR concentration 270 nM)
- test-description: PBM binding z-score (relative to random genomic background probes); higher = stronger binding; sequences stand for … in GC…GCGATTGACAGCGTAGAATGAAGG
I'd appreciate a reply containing only the number, no unit.

Input line: Respond only with PBM binding z-score recorded for `CGAACTATGTCATTGACAGGACAGTGAATAGTAA`
Output line: 0.439

Input line: Respond only with PBM binding z-score recorded for `ACCGAAAGGTCGTGAGGTGAGTATACAGAAAGGC`
Output line: 0.0801

Input line: Respond only with PBM binding z-score recorded for `TTACCATGGTGAAGGTCGTTGATCCCTCTGTAGA`
Output line: -0.727

Input line: Respond only with PBM binding z-score recorded for `AGTCAAAGTTCAGGACGAGGTAACGTAGAGCACG`
Output line: 0.443

Input line: Respond only with PBM binding z-score recorded for `CGTCCAAGGTCATAGGAGGACAGTGAAGACAGAT`
Output line: 1.62

Input line: Respond only with PBM binding z-score recorded for `ACTATTAGTTGAGAGGAGGGCAACCGATAGGTTG`
Output line: 0.97

Input line: Respond only with PBM binding z-score recorded for `ATATGTAGGTTAGCTTGGGTCATTCAGACTAGGC`
Output line: 0.877

Input line: Respond only with PBM binding z-score recorded for `ACCGACAGGTGAGTGAAGGTAACTCAGCTGGACG`
Output line: -0.642

Input line: Respond only with PBM binding z-score recorded for `CAAACTAGGTCACCAAAGGTCAAAGTCGAATGAC`
Output line: 3.8

Input line: Respond only with PBM binding z-score recorded for `CAAACTAGGTCAAGGACAGTGAATCTCCGCACGC`
Output line: 1.49

Input line: Respond only with PBM binding z-score recorded for `CCTCGGAGGACAACAGGAGGTCACAGCTGCCAGA`
Output line: 0.924

Input line: Respond only with PBM binding z-score recorded for `GCTCGGAGGACAAGGTCAGAACTTTGTCCGTAGA`
Output line: -0.812

Input line: Respond only with PBM binding z-score recorded for `GCAGACAGGTGAAACTCAGGTAACTCAGGGTGGC`
Output line: -0.536

Input line: Respond only with PBM binding z-score recorded for `GATACAGGGTCAGCTAGAGGCCATAGTATGGAAA`
Output line: 0.222

Input line: Respond only with PBM binding z-score recorded for `TCATATAGGTAAAGGTGAAAGTGGAACGATATGA`
Output line: 0.548

Input line: Respond only with PBM binding z-score recorded for `TCTAGCAGGCCAGTGGGTCACTCAAGAGGTACGG`
Output line: -0.945

Input line: Respond only with PBM binding z-score recorded for `GATACAGGGTCAGCTAGCGGCCAGAGTATGGAAA`
Output line: 0.418

Input line: Respond only with PBM binding z-score recorded for `GCTATTAGTTGAAGGGGCAACCGAATGATTCTCG`
Output line: 0.778

Input line: Respond only with PBM binding z-score recorded for `CGAGCTAGGTCATTGACAGGACAGTGAATAGTAA`
Output line: -0.128

Input line: Respond only with PBM binding z-score recorded for `TTTTGTAGATCAACAGGAGGTTAAGAAAGATCGA`
Output line: 1.05

Input line: Respond only with PBM binding z-score recorded for `CCTCGGAGGACAGAAAGTCAGAGCTGTCCGCTTT`
Output line: -0.769

Input line: Respond only with PBM binding z-score recorded for `ACAGACAGGTGAGTGAAGGTAACTAAGCTGGACG`
Output line: 0.112

Input line: Respond only with PBM binding z-score recorded for `CCTAGCAAGCCAGGGTCACTCAAGCATTTCGCTT`
Output line: -0.000742

Input line: Respond only with PBM binding z-score recorded for `GCTTACGGGTCAAAGGTTATAGAATGAATAGAAT`
Output line: 0.715

Input line: Respond only with PBM binding z-score recorded for `AATACAGGGTCACTATGCCAGAGTAGGTACGAAT`
Output line: 1.11

Input line: Respond only with PBM binding z-score recorded for `TCAAGTAGGTTAGTCGGGGCATTCAGCCAACATA`
Output line: 0.814
